molecular target: Muscarinic acetylcholine receptor M4 (Homo sapiens) (UniProt P08173); test: Antagonist activity at human Gs/Gi/o-coupled CHRM4 expressed in CHOK1 cells assessed as inhibition in acetylcholine-induced beta-arrestin 2 recruitment at 20 uM incubated for 30 mins followed by acetylcholine addition and measured after 90 or 180 mins by pathhunter beta-arrestin assay relative to control; format: cell-based
Sequence (P08173 whole entry): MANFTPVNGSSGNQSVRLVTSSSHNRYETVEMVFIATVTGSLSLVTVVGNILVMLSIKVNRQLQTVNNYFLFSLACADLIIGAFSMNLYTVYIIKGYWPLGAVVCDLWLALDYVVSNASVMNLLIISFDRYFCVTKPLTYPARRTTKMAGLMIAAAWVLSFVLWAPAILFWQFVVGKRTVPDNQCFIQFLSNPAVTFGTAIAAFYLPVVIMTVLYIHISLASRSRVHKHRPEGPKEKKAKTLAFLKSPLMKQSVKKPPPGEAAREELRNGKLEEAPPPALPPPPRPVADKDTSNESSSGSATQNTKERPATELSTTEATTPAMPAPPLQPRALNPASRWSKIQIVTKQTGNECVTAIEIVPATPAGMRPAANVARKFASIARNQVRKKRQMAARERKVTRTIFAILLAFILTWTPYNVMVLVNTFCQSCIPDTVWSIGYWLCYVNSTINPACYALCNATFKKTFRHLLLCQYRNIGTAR
reported metric: inhibition (%)

Would you please look over these solved cases?
INSERT INTO measurements (structure_smiles_string, reported_metric, unit_annotation, recorded_result) VALUES
  ('CC[C@@]1(CC(=O)OC)CCCN2CC[C@]3(O)C(=Nc4ccccc43)[C@@H]21', 'inhibition', '%', 24),
  ('CC[C@@]12C=C(C(=O)OC)n3c(c(c4ccccc43)CCN(/C=C/C(=O)OC)CCC1)[C@@H]2c1ccc(O)cc1', 'inhibition', '%', 67),
  ('CC[C@]12CCCN3CCc4c(n(c5ccccc45)[C@@](O)(C(=O)OC)C1)[C@@H]32', 'inhibition', '%', -8),
  ('CC[C@@]1(CC(=O)NC2CCCC2)CCCN2CCc3c([nH]c4ccccc34)[C@@H]21', 'inhibition', '%', 43);

[I] CC[C@@]12CCCN3CCc4c([nH]c5ccccc45)[C@]31N(Cc1cn(Cc3ccccc3)nn1)C(=O)C2
[II] CC[C@]12CCCN3CC[C@]4(C(=O)c5ccccc5N4C(=O)C1)[C@@H]32
Q: Which item exceeds the other in inhibition, I or II ? Your answer should be the label attached to the chosen record.
Result: I
(I: 75%, II: 22%)
